- Assay summary: Human exposure (AUC 0-24)
- Assay context: in vivo; human @ 300 mg dose
Attribute measured: AUC(0-t)
Record the result as number plus unit.

Would you kindly share the measured AUC(0-t) for `CC(=O)NC[C@H]1CN(c2ccc(-c3ccc(CNCc4cnn[nH]4)cc3)c(F)c2)C(=O)O1` ? 3.33 µg·h/mL

====

- Assay summary: Approximate solubility in solvents by aliquot addition
- Assay type: physicochemical
- Assay context: acetonitrile, organic solvent or mixture, thermodynamic from solid, ambient temperature
Attribute measured: solubility

Would you kindly share the measured solubility for `CC(=O)NC[C@H]1CN(c2ccc(-c3ccc(CNCc4cnn[nH]4)cc3)c(F)c2)C(=O)O1` ? < 1000 µg/mL

====

- Assay summary: Approximate solubility in solvents by aliquot addition
- Format: physicochemical
- Assay context: 2,2,2-trifluoroethanol (TFE), organic solvent or mixture, thermodynamic from solid, Table 11: 2,2,2-trifluoroethanol (TFE)
Counter-ions that a name gives are not always drawn.
Attribute measured: solubility

Would you kindly share the measured solubility for CC(=O)NC[C@H]1CN(c2ccc(-c3ccc(CNCc4cnn[nH]4)cc3)c(F)c2)C(=O)O1 [Hydrochloride] ? ≥ 6000 µg/mL

====

Catalogue of MIC readings, one per entry.
- System: S. aureus
- Assay summary: Minimum inhibitory concentrations (MICs) for S. aureus of exemplary compounds (Table 2)
- Type: cell-based
- Assay context: Staphylococcus aureus, minimum inhibitory concentrations for S. aureus; read-out: MICs
Answer format: numeric, µg/mL implied, no suffix.

# Compound structure, Unit spec, MIC
rows = [
    ("CC(=O)NC[C@H]1CN(c2ccc(-c3ccc(CNCc4ccncc4)cc3)nc2)C(=O)O1", "µg/mL", 16),
]

Would you kindly share the measured MIC for `CC(=O)NC[C@H]1CN(c2ccc(-c3ccc(C(=O)NCc4ccco4)cc3)c(F)c2)C(=O)O1` ? 2

Follow-up item: `CC(=O)NC[C@H]1CN(c2ccc(-c3cc(C)c(CNCc4ccncc4)cc3C)c(F)c2)C(=O)O1` 128

Follow-up item: `CNc1ncnc2c1ncn2Cc1ccc(-c2ccc(N3C[C@H](CNC(C)=O)OC3=O)cc2F)cc1` 1

Follow-up item: `CC(=O)NC[C@H]1CN(c2ccc(-c3ccc(CNCc4cc[n+]([O-])cc4)cc3)c(F)c2)C(=O)O1` 2

Follow-up item: `CC(=O)NC[C@H]1CN(c2ccc(-c3ccc(CCn4ccnc4)cc3)c(F)c2)C(=O)O1` 2

Follow-up item: `CC(=O)NC[C@H]1CN(c2ccc(-c3ccc(CNNC(=O)c4cccnc4)cc3)c(F)c2)C(=O)O1` 0.25

====

- Assay summary: Approximate solubility in solvents by aliquot addition
- Type: physicochemical
- Assay context: ethyl ether, organic solvent or mixture, thermodynamic from solid, ambient temperature
Attribute measured: solubility

Would you kindly share the measured solubility for `CC(=O)NC[C@H]1CN(c2ccc(-c3ccc(CNCc4cnn[nH]4)cc3)c(F)c2)C(=O)O1` ? < 1000 µg/mL

====

- Tested on: S. aureus
- Assay summary: Minimum inhibitory concentrations (MICs) for S. aureus of exemplary compounds (Table 2)
- Assay type: cell-based
- Assay context: Staphylococcus aureus, minimum inhibitory concentrations for S. aureus; read-out: MICs
Attribute measured: MIC (µg/mL)
Answer format: numeric, µg/mL implied, no suffix.

Answered examples (3):
# Compound, Test target, MIC (µg/mL)
measured = [
    ("CC(=O)NC[C@H]1CN(c2ccc(-c3ccc(CNCc4c(C)[nH]c(=O)[nH]c4=O)cc3)c(F)c2)C(=O)O1 [Compound 4057]", "S. aureus", 16),
    ("CC(=O)NC[C@H]1CN(c2ccc(-c3ccc(CNCc4ccc(N5CCOCC5)nc4)cc3)c(F)c2)C(=O)O1 [Compound 4118]", "S. aureus", 8),
    ("CC(=O)NC[C@H]1CN(c2ccc(-c3ccc(Cn4cccc4)cc3)c(F)c2)C(=O)O1 [Compound 1054]", "S. aureus", 0.5),
]

Would you kindly share the measured MIC for O=C1O[C@@H](CO)CN1c1ccc(-c2ccc(CNCc3ccncc3)cc2)c(F)c1 [Compound 4213] ? 4

Follow-up item: CC(=O)NC[C@H]1CN(c2ccc(-c3ccc(Cn4ccnn4)nc3)c(F)c2)C(=O)O1 [Compound 1036] 1

Follow-up item: CC(=O)NC[C@H]1CN(c2ccc(-c3ccc([C@H](O)CN(CCS(C)(=O)=O)Cc4ccccc4)cc3)c(F)c2)C(=O)O1 [Compound 4286] 2
